experiment: EMT-state selective cytotoxicity in co-culture – imaging, PC-3E GFP, TEM4-18 mCherry, primary screen (AID 1345086); details: PC-3E GFP / TEM4-18 mCherry co-culture, imaging cell counts; at 1 µM; actives lie on both sides; counts scaled to control wells, 1 = unselective;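 also: normalised mesenchymal count divided by normalised epithelial count so high means epithelial killing; cells exposed to compound for 72 h before imaging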
metric name: red/green cell ratio (normalised)

>>> val("CC(c1cc2ccccc2s1)N(O)C(N)=O (configuration not stated)")
0.83
>>> val("CC(C)NCC(O)COc1ccc(CCOCC2CC2)cc1 (configuration not stated)")
0.81
>>> val("Cc1nc2n(c(=O)c1CCN1CCC(c3noc4cc(F)ccc34)CC1)CCCC2")
0.98
>>> val("OCc1cc(C(O)CNCCCCCCOCCCCc2ccccc2)ccc1O (configuration not stated)")
1.18
>>> val("CN1CCOC(c2ccccc2)c2ccccc2C1 (configuration not stated)")
1.19
>>> val("Cn1nnc2c(C(N)=O)ncn2c1=O")
1.08
>>> val("CCCCNc1ccc(C(=O)OCCN(C)C)cc1")
1.19

====

assay: growth inhibition, single agents and combos, ICB984, cell-based, cisplatin or BGB combos, synergistic combos for chromothripsis tumors (AID 1671451); conditions: ICB984 medulloblastoma cells, drug combinations, BGB IC40 combo, at 0.05 µM, stronger effect = higher value;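 also: cells exposed for 96 hours before readout; 0% = vehicle DMSO and 100% = killing by high DMSO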
This listing pairs compounds with measured inhibition.
metric name: inhibition (%)

>>> val("Cc1oncc1C(=O)Nc1ccc(C(F)(F)F)cc1")
33.8
>>> val("O=NN(CCCl)C(=O)NCCCl")
-39
>>> val("Cc1ccnc2c1NC(=O)c1cccnc1N2C1CC1")
-20.9
>>> val("Nc1nc(=S)c2[nH]cnc2[nH]1")
-32.5
>>> val("C[C@H]1COc2c(C3(N)CC3)c(F)cc3c(=O)c(C(=O)O)cn1c23")
-27.4
>>> val("CCN1CCN(c2cc3c(cc2F)c(=O)c(C(=O)O)cn3C2CC2)CC1")
-15.7
>>> val("CN(C)c1ccc(C(=C2C=CC(=[N+](C)C)C=C2)c2ccc(N(C)C)cc2)cc1")
98.5
>>> val("O=C(O)P(=O)(O)O")
-29.6
>>> val("CCn1cc(C(=O)O)c(=O)c2cc3c(cc21)OCO3")
6.59

====

Quick reference: inhibition of the listed items.
assay: growth inhibition, single agent or in combination, cell-based, chromothripsis tumors, cisplatin or BGB combos (AID 1671449); settings: LFS_MB_P medulloblastoma cells, at 0.5 µM, stronger effect = higher value;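 also: cells exposed for 96 hours; 0% = vehicle DMSO and 100% = killing by high DMSO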
metric name: inhibition (%)

>>> val("Nc1nc2c(ncn2COC(CO)CO)c(=O)[nH]1")
-14.4
>>> val("O=c1c(O)c(-c2ccc(O)c(O)c2)oc2cc(O)cc(O)c12")
-5.93
>>> val("CCN1CCN(c2cc3c(cc2F)c(=O)c(C(=O)O)cn3C2CC2)CC1")
-14.6
>>> val("O=c1oc2c(O)c(O)cc3c(=O)oc4c(O)c(O)cc1c4c23")
-26.4
>>> val("Nc1nc(=S)c2[nH]cnc2[nH]1")
-26.3
>>> val("Cc1oncc1C(=O)Nc1ccc(C(F)(F)F)cc1")
-30.3
>>> val("O=NN(CCCl)C(=O)NCCCl")
-2.88
>>> val("CC(N)C12CC3CC(CC(C3)C1)C2 (centres undefined)")
6
>>> val("C[C@H]1COc2c(C3(N)CC3)c(F)cc3c(=O)c(C(=O)O)cn1c23")
-4.46

====

experiment: growth inhibition, single agent and combos, cell-based, chromothripsis tumors, cisplatin or BGB combos (AID 1671450); details: HDN33 neuroblastoma cells, at 0.5 µM, stronger effect = higher value;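 also: cells exposed to compound for four days; 0% = vehicle DMSO and 100% = cell killing by high DMSO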
Calls of active or inactive are those of the source. Cut-off read from the data, not from the text of the source: active = inhibition above about 80%; inactive = the rest.
metric name: inhibition

>>> val("Cc1oncc1C(=O)Nc1ccc(C(F)(F)F)cc1")
"-14.7% (inactive)"
>>> val("O=c1oc2c(O)c(O)cc3c(=O)oc4c(O)c(O)cc1c4c23")
"-5.05% (inactive)"
>>> val("O=C(O)CCCCCCCC(=O)O")
"-40.9% (inactive)"
>>> val("O=NN(CCCl)C(=O)NCCCl")
"6.29% (inactive)"
>>> val("Nc1nc(=S)c2[nH]cnc2[nH]1")
"33.6% (inactive)"
>>> val("CCn1cc(C(=O)O)c(=O)c2cc3c(cc21)OCO3")
"11.7% (inactive)"
>>> val("Nc1[nH]c(=O)ncc1F")
"-18.6% (inactive)"
>>> val("CCN1CCN(c2cc3c(cc2F)c(=O)c(C(=O)O)cn3C2CC2)CC1")
"-11.2% (inactive)"

====

Reported viability values for the following compounds.
assay: drug combination growth inhibition, ovarian cancer – cell-based, oncology-focused library, rucaparib conditional, profiling panel (AID 1508598); conditions: patient-derived ovarian cancer cells, CellTiter-Glo viability, 144 h; at 0.313 µM; OCI-C5x cells; with rucaparib 10 µM; stronger effect = lower value; 100% = cells with rucaparib alone
metric name: viability (%)

>>> val("Cc1cc2c(C(C)C)c(O)c(O)c(C=O)c2c(O)c1-c1c(C)cc2c(C(C)C)c(O)c(O)c(C=O)c2c1O")
128
>>> val("Cc1nc(-c2ccc(OCC(C)C)c(C#N)c2)sc1C(=O)O")
110
>>> val("COc1cc2c(Nc3ccc(Br)cc3F)ncnc2cc1OCC1CCN(C)CC1")
112
>>> val("Cc1nc2ccc(CN(C)c3ccc(C(=O)N[C@@H](CCC(=O)O)C(=O)O)s3)cc2c(=O)[nH]1")
15.6
>>> val("CN(Cc1cnc2nc(N)nc(N)c2n1)c1ccc(C(=O)N[C@@H](CCC(=O)O)C(=O)O)cc1")
18.2
>>> val("CC(C)(C#N)c1cc(Cn2cncn2)cc(C(C)(C)C#N)c1")
103
>>> val("CC(c1cc2ccccc2s1)N(O)C(N)=O (stereo not given)")
113
>>> val("COc1ccccc1OCC(O)CN1CCN(CC(=O)Nc2c(C)cccc2C)CC1 (stereo not given)")
110
>>> val("CCc1c2c(nc3ccc(OC(=O)N4CCC(N5CCCCC5)CC4)cc13)-c1cc3c(c(=O)n1C2)COC(=O)[C@]3(O)CC")
94
>>> val("COC(=O)Nc1nc2ccc(C(=O)c3cccs3)cc2[nH]1")
89

====

assay: viability loss with induced miR-34 in A549 – imaging, A549 dox-inducible miR-34, nuclei and caspase counts, primary screen (AID 1347080); conditions: A549 miR-34 inducible, Hoechst nuclei count, 48 h; measured here: total cells without miR-34 induction
# if measured cell count < 10000: y  # else: n

>>> group_label("Nc1ncnc2c1ncn2[C@@H]1O[C@H](COP(=O)(O)O)[C@@H](O)[C@H]1O")
"n"
>>> group_label("CC[C@]12CCCN3CCc4c(n(c5ccccc45)C(=O)C1)[C@@H]32")
"y"
>>> group_label("O=C1OC(c2ccc(O)cc2)(c2ccc(O)cc2)c2ccccc21")
"n"
>>> group_label("COc1cc(/C=C/C(=O)CC(=O)/C=C/c2ccc(O)c(OC)c2)ccc1O")
"y"
>>> group_label("CN1CCCN=C1COC(=O)C(O)(c1ccccc1)C1CCCCC1 (stereo unspecified)")
"n"
>>> group_label("COCCCOc1cc(C[C@@H](C[C@H](N)[C@@H](O)C[C@H](C(=O)NCC(C)(C)C(N)=O)C(C)C)C(C)C)ccc1OC")
"y"
>>> group_label("Oc1cccc(O)c1")
"n"
>>> group_label("CC1=C(C)C(=O)C(C(CCCCCC(=O)O)c2ccccc2)=C(C)C1=O (stereo unspecified)")
"n"
>>> group_label("CC(=O)Nc1ccc(S(=O)(=O)Nc2ccc([N+](=O)[O-])cc2)cc1")
"n"
>>> group_label("CCN(CC)CCOc1ccc(/C(=C(\\Cl)c2ccccc2)c2ccccc2)cc1")
"n"

====

test system: F380Y/beta4; assay: BK channel mutant inhibitors and activators – cell-based, U2OS BacMam, thallium flux, beta subunits, selectivity assay, profiling panel (AID 1259406); settings: U2OS BacMam BK variants, at 30 µM;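 also: initial slope of Thallos dye fluorescence rise after thallium is added; log ratio against the mean of 0.3% DMSO vehicle wells on the same plate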
Calls of active or inactive are those of the source.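 How the source made its calls: active means thallium flux through the channel raised or lowered by more than 3 SD from vehicle-only wells, actives on both sides; inactive means the rest.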
Possible outcomes: active, inactive

>>> group_label("CCCN1CCCC[C@H]1C(=O)Nc1c(C)cccc1C")
"inactive"
>>> group_label("O=C(NCCN1CCOCC1)c1ccc(Cl)cc1")
"inactive"
>>> group_label("CCCN[C@H]1CCc2nc(N)sc2C1")
"inactive"
>>> group_label("COC(=O)CCc1ccc(OCC(O)CNC(C)C)cc1 (centres undefined)")
"inactive"
>>> group_label("CCN(CC)CC1CCCCN1CC(=O)N1c2ccccc2C(=O)Nc2cccnc21 (centres undefined)")
"inactive"
>>> group_label("O=C(NCCO[N+](=O)[O-])c1cccnc1")
"inactive"
>>> group_label("CN1CCC(=C2c3ccccc3CC(=O)c3sccc32)CC1")
"inactive"
>>> group_label("COc1cc2nc(N3CCN(C(=O)C4COc5ccccc5O4)CC3)nc(N)c2cc1OC (centres undefined)")
"active"
>>> group_label("CN1CCC(=C2c3ccccc3C=Cc3ccccc32)CC1")
"active"
>>> group_label("CC(C)c1ccc2oc3nc(N)c(C(=O)O)cc3c(=O)c2c1")
"inactive"
>>> group_label("Cc1ccnc2c1NC(=O)c1cccnc1N2C1CC1")
"inactive"
>>> group_label("COC1=C(OC)C(=O)C(CCCCCCCCCCO)=C(C)C1=O")
"active"
>>> group_label("COc1ccc(C(=O)NCc2ccc(OCCN(C)C)cc2)cc1OC")
"inactive"
>>> group_label("COc1ccccc1OCC(O)CN1CCN(CC(=O)Nc2c(C)cccc2C)CC1 (centres undefined)")
"inactive"
